Reported Kd is given for each of the following binders.
assay target: T1, human vascular endothelial growth factor receptor-2 Fc chimera (KDR-Fc) (human, UniProt P35968 20-764)
T1 construct: range 1-764; purchased from R&D Systems; also called hKDR; human VEGF-R2-Fc; not shown: human IgG1 Fc
T1 sequence (P35968 20-764 limits assumed, change not shown, form in doubt): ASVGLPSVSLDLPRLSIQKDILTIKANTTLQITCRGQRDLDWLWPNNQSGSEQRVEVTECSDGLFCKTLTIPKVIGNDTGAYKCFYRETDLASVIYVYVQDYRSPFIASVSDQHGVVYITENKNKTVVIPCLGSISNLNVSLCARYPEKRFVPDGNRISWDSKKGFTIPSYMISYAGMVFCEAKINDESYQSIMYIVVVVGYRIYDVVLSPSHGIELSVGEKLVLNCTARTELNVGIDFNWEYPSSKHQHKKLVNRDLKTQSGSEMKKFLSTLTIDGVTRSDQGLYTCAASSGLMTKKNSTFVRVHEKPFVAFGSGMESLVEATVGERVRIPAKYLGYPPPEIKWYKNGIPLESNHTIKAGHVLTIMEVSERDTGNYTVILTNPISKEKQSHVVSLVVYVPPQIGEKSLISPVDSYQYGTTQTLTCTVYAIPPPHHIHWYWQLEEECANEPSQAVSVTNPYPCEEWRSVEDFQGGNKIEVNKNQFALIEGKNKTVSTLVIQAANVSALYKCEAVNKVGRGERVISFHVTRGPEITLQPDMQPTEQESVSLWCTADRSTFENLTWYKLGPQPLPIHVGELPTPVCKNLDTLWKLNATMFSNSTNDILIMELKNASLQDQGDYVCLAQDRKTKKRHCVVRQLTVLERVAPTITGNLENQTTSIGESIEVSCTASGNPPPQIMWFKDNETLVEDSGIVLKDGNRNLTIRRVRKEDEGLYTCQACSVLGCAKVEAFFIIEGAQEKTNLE
protocol: BIAcore, target-Fc immobilized
Use nM as the unit, but write only the number.

// known answers, use as guide
VR28 (designed binder, scaffold said to be unchanged from wild type 10Fn3; Flag-tagged in vitro translated protein in the radioactive assay, His6-tagged E. coli protein in BIAcore; tags left out; also called VR28 (I69T)) VSDVPRDLEVVAATPTSLLISWRHPHFPTRYYRITYGETGGNSPVQEFTVPLQPPTATISGLKPGVDYTITGYAVTVAQNDHELITPISINYRT ... 13
E25 (designed binder, Del 1-8 10Fn3 clone; Flag-tagged in vitro translated protein in the radioactive assay, His6-tagged E. coli protein in BIAcore; tags left out) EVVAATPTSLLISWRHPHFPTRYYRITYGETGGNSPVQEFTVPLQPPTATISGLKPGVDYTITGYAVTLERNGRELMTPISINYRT ... 0.21
159(Q8L) (designed binder, clone 159 with Q8 corrected to the wild type L; His6-tagged E. coli protein in BIAcore, tag left out; also called Clone 159 (Q8L)) VSDVPRDLEVVAATPTSLLISWRHPHFPTRYYRITYGETGGNSPVQEFTVPLQPPAATISGLKPGVDYTITGYAVTMAQSGHELFTPISINYRT ... 2

We now examine a further binder.
Let me know recorded Kd for E18 (designed binder, Del 1-8 10Fn3 clone; Flag-tagged in vitro translated protein in the radioactive assay, His6-tagged E. coli protein in BIAcore and cell assays; tags left out) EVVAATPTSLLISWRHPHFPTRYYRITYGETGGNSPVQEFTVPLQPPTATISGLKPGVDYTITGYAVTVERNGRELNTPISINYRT , thanks.
0.46
